Starred links: 1 amine or outer side, 2 acyl side, 3 side chain; linkers in the order of their positions; H or OH if unused. Non-standard residues stand in square brackets, D forms with d. Residues, ends and D or L forms follow the SMILES beside them. X3 = O=C([C@H](CCC1=CCC(F)(F)CC1)N[*:1])[*:2]; 1Nal = N[C@@H](Cc1cccc2ccccc12)C(=O)O; NHCH2CH2SCH2CO = O=C(CSCCN[*:1])[*:2]; NMeF = CN[C@@H](Cc1ccccc1)C(=O)O; hCha = N[C@@H](CCC1CCCCC1)C(=O)O; hPhe = N[C@@H](CCc1ccccc1)C(=O)O; X1 = CC(C)(CN[*:1])SCC(=O)[*:2]; X2 = CC(C)(SCCN[*:1])C(=O)[*:2]; αMeP = C[C@@]1(C(=O)O)CCCN1
Here we list molecules with their recorded log10 IC50 when tested on Human immunodeficiency virus type 1 protease (Human immunodeficiency virus 1).
Property Measured: log10 IC50 (log10 of the value in nM)

Molecule	log10 IC50
CC(C)C[C@@H]1NC(=O)[C@H](C(C)C)NC(=O)[C@@H]2CCCN2C(=O)[C@H](C(C)C)NC(=O)[C@H](Cc2ccccc2)NC(=O)CSCCNC(=O)CNC(=O)[C@H](Cc2ccccc2)N(C)C(=O)[C@H](CC(C)C)NC(=O)[C@H](Cc2c[nH]c3ccccc23)NC1=O (cyclo(FVPVLWL[NMeF]G[NHCH2CH2SCH2CO]))	0.00
CC(C)C[C@@H]1NC(=O)[C@H](C(C)C)NC(=O)[C@]2(C)CCCN2C(=O)[C@H](C(C)C)NC(=O)[C@H](Cc2ccccc2)NC(=O)CSCCNC(=O)[C@H](Cc2ccccc2)N(C)C(=O)[C@H](CC(C)C)NC(=O)[C@H](CCC2=CCC(F)(F)CC2)NC1=O (cyclo(FV[αMeP]VL[X3]L[NMeF][NHCH2CH2SCH2CO]))	-0.68
CC(C)C[C@@H]1NC(=O)[C@H](C(C)C)NC(=O)[C@]2(C)CCCN2C(=O)[C@H](C(C)C)NC(=O)[C@H](Cc2ccccc2)NC(=O)CSC(C)(C)CNC(=O)[C@H](C)NC(=O)[C@H](Cc2ccccc2)N(C)C(=O)[C@H](CC(C)C)NC(=O)[C@H](CCC2CCCCC2)NC1=O (cyclo(A[X1]FV[αMeP]VL[hCha]L[NMeF]))	-0.21
CC(C)C[C@@H]1NC(=O)[C@H](C(C)C)NC(=O)[C@@H]2CCCN2C(=O)[C@H](C(C)C)NC(=O)[C@H](Cc2ccccc2)NC(=O)CSCCNC(=O)[C@H](Cc2ccccc2)N(C)C(=O)[C@H](CC(C)C)NC(=O)[C@H](Cc2cccc3ccccc23)NC1=O (cyclo([1Nal]L[NMeF][NHCH2CH2SCH2CO]FVPVL))	-0.17
CC(C)C[C@@H]1NC(=O)[C@H](C(C)C)NC(=O)[C@]2(C)CCCN2C(=O)[C@H](C(C)C)NC(=O)[C@H](Cc2ccccc2)NC(=O)C(C)(C)SCCNC(=O)[C@H](C)NC(=O)[C@H](Cc2ccccc2)N(C)C(=O)[C@H](CC(C)C)NC(=O)[C@H](CCC2CCCCC2)NC1=O (cyclo(A[X2]FV[αMeP]VL[hCha]L[NMeF]))	1.18
CC(C)C[C@@H]1NC(=O)[C@H](C(C)C)NC(=O)[C@]2(C)CCCN2C(=O)[C@H](C(C)C)NC(=O)[C@H](Cc2ccccc2)NC(=O)CSCCNC(=O)[C@H](Cc2ccccc2)N(C)C(=O)[C@H](CC(C)C)NC(=O)[C@H](CCC2CCCCC2)NC1=O (cyclo(FV[αMeP]VL[hCha]L[NMeF][NHCH2CH2SCH2CO]))	-0.54
CC(C)C[C@@H]1NC(=O)[C@H](C(C)C)NC(=O)[C@]2(C)CCCN2C(=O)[C@H](C(C)C)NC(=O)[C@H](Cc2ccccc2)NC(=O)CSCCNC(=O)[C@H](Cc2ccccc2)N(C)C(=O)[C@H](CC(C)C)NC(=O)[C@H](CCc2ccccc2)NC1=O (cyclo(FV[αMeP]VL[hPhe]L[NMeF][NHCH2CH2SCH2CO]))	-0.35

Where do these numbers come from? They come from ChEMBL document CHEMBL5113542.
